target_under_test: T1, DLG3_3, Q92796
T1 sequence (Q92796 374-475, limits assumed, looked up): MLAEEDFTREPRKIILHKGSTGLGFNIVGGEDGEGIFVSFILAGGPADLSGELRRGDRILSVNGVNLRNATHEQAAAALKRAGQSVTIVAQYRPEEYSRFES
method_description: holdup assay
Parameters: key: below the threshold = too weak to quantify, mostly under pKd 3.1 to 4
assay_context: plain residues with an end cap or a label only (N-terminal biotin on a linker: ado-ado)
measure_name: pKd

Sample records with pKd:
binder	reported_measurement
EDGESWEYQI [TRPV6, Q9H1D0]	below the threshold
LAHVKHKEQI [AQP3, Q92482]	below the threshold
TISFTQTSQF [SLC1A1, P43005]	below the threshold
AEASVACSLC [PTGIR, P43119]	below the threshold
MHIQEKGFHV [EPHA6, Q9UF33]	below the threshold

Please give the documented pKd of ARGPPRESEV [FAM110D, Q8TAY7]
4.48

For the binder KKMLQRRTLL [OR8G1, Q15617] , give its reported pKd.
below the threshold

Look up and state reported pKd for RFQQRMQTHV [KIRREL1, Q96J84]
3.94
